organism: Mus musculus; test: Antagonism of benzodiazepine traction in mice; type: functional
Each item that follows carries a reported ED50.

Here is how some compounds turned out for ED50.
COMPOUND: COc1ccc(-c2ncn3c2c(=O)n(C(C)C)c2c(Cl)cccc23)cc1
VAL: > 30 mg/kg
//
COMPOUND: O=C(N1CCCCC1)N1Cc2c(-c3ccccc3)ncn2-c2ccccc21
VAL: > 30 mg/kg
//
COMPOUND: CN(C)C(=O)N1Cc2c(-c3ccc(F)cc3)ncn2-c2ccccc21
VAL: 4.9 mg/kg
//
COMPOUND: CC(C)n1c(=O)c2c(-c3noc(C4CC4)n3)ncn2c2ccccc21 [PANADIPLON]
VAL: 1.7 mg/kg
//
COMPOUND: CC1CN(C(=O)N2Cc3c(-c4ccc(F)cc4)ncn3-c3ccc(F)cc32)CC(C)N1 (stereo unspecified)
VAL: > 30 mg/kg

Shifting focus to the compound that follows.
Prompt line: Entry CC1CN(C(=O)N2Cc3c(-c4ccc(F)cc4)ncn3-c3ccccc32)CC(C)N1 (stereo unspecified) : reported ED50 = ?
Response line: > 30 mg/kg

###

Reported values of TBPS shift for individual entries
target: GABA-A receptor; anion channel (Rattus norvegicus) (UniProt O09028+P15431+P18506+P18508+P19969+P20236+P23574+P23576+P28471+P28473+P30191+P62813+P63079+P63138+Q91ZM7+Q9ES14)

COMPOUND: CC1CN(C(=O)N2Cc3c(-c4ccc(F)cc4)ncn3-c3cccc(Cl)c32)CC(C)N1 (configuration not stated)
TBPS shift: 0.31
//
COMPOUND: O=C(c1ccc(F)cc1)N1Cc2c(-c3ccc(F)cc3)ncn2-c2ccccc21
TBPS shift: 0.82

Prompt line: Form field: reported TBPS shift of CC(C)OC(=O)N1Cc2c(-c3ccc(F)cc3)ncn2-c2ccccc21
Response line: 0.93

Prompt line: Which TBPS shift is listed for CC(C)n1c(=O)c2c(-c3ccc(F)cc3)ncn2c2cccc(Cl)c21 ?
Response line: 2.04

Prompt line: What does the record list as TBPS shift for CC1CN(C(=O)N2Cc3c(-c4ccc(F)cc4)ncn3-c3ccccc32)CC(C)N1C (configuration not stated) ?
Response line: 0.31

Prompt line: Consider the compound shown here: CC(C)n1c(=O)c2c(-c3ccccc3)ncn2c2ccccc21 What is its recorded TBPS shift?
Response line: 0.31

Prompt line: May I ask what TBPS shift has been recorded for Cc1ccc(-c2ncn3c2C(C)(C)N(C(=O)N(C)C)c2ccccc2-3)cc1 ?
Response line: 0.71

Prompt line: Request the reported TBPS shift associated with CCNC(=O)N1Cc2c(-c3ccc(F)cc3)ncn2-c2ccccc21
Response line: 0.42

Prompt line: Name the reported TBPS shift value associated with the compound NC(=O)N1Cc2c(-c3ccc(F)cc3)ncn2-c2ccccc21
Response line: 0.29

Prompt line: If you can, please state the reported TBPS shift value of O=C(N1CCCC1)N1Cc2c(-c3ccc(F)cc3)ncn2-c2ccccc21 .
Response line: 0.64

Prompt line: Recorded TBPS shift of CN(C)C(=O)N1c2ccccc2-n2cnc(-c3ccc(F)cc3)c2C1(C)C , please.
Response line: 0.49

Prompt line: What TBPS shift value was documented for this compound, O=C(N1CCOCC1)N1Cc2c(-c3ccc(F)cc3)ncn2-c2ccc(Cl)cc21 ?
Response line: 1.05
